procedure.details: Phase 1 (AG10-001) multiple ascending dose pharmacokinetics
Format: in vivo, human
condition.context: human, plasma, oral, 100 mg, 100 mg q12 h, Day 1; geometric mean
measured.property: Cmax (µM)
The reply should be a number in µM, with the unit left off.

[Q] Tell me the measured Cmax of Cc1n[nH]c(C)c1CCCOc1cc(C(=O)O)ccc1F , please.
[A] 8.67

* * *

procedure.details: Phase 1 (AG10-001) single ascending dose pharmacokinetics
Format: in vivo, human
condition.context: both sexes, human, plasma, po, 150 mg
measured.property: AUC(0-inf) (µM·h)
The reply should be a number in µM·h, with the unit left off.

[Q] Tell me the measured AUC(0-inf) of Cc1n[nH]c(C)c1CCCOc1cc(C(=O)O)ccc1F [AG10] , please.
[A] 168

* * *

Below: a set of entries, each annotated with reported ΔG.
system.under.test: TTR (Homo sapiens)
procedure.details: Isothermal titration calorimetry (ITC) with TTR in buffer
condition.context: 25° C.
The reply should be a number in kcal/mol, with the unit left off.

# annotated cases, reported ΔG shown
• Cc1n[nH]c(C)c1CCCOc1cc(C(=O)O)ccc1I = -9.61
• CCc1n[nH]c(CC)c1CCCOc1cc(C(=O)O)ccc1F = -8.1
• COC(=O)c1ccc(F)c(OCCCc2c(C)n[nH]c2C)c1 = -8.99

Query compound follows.
[Q] Query ΔG on TTR (Homo sapiens) for Cc1nn(C)c(C)c1CCCOc1cc(C(=O)O)ccc1F
[A] -9.0

* * *

procedure.details: Phase 1 (AG10-001) single ascending dose pharmacokinetics
Format: in vivo, human
condition.context: both sexes, human, plasma, po, 300 mg, single oral dose 300 mg AG10 HCl; healthy subjects; geometric mean ± SD
measured.property: Cmax (µM)
The reply should be a number in µM, with the unit left off.

[Q] Tell me the measured Cmax of Cc1n[nH]c(C)c1CCCOc1cc(C(=O)O)ccc1F , please.
[A] 15.1

* * *

procedure.details: Phase 1 (AG10-001) multiple ascending dose pharmacokinetics
Type: in vivo, human
condition.context: human, plasma, oral, 300 mg, 300 mg q12 h, Day 12; geometric mean
measured.property: Cmax (µM)
The reply should be a number in µM, with the unit left off.

[Q] Tell me the measured Cmax of Cc1n[nH]c(C)c1CCCOc1cc(C(=O)O)ccc1F [AG10] , please.
[A] 23.5

* * *

procedure.details: Phase 1 (AG10-001) single ascending dose pharmacokinetics
Type: in vivo, human
condition.context: both sexes, human, plasma, po, 150 mg, single oral dose 150 mg AG10 HCl; healthy subjects; geometric mean ± SD
measured.property: Tmax (min)
The reply should be a number in min, with the unit left off.

[Q] Tell me the measured Tmax of Cc1n[nH]c(C)c1CCCOc1cc(C(=O)O)ccc1F , please.
[A] 50.9

* * *

system.under.test: human serum albumin (HSA) (Homo sapiens, UniProt P02768)
Sequence (P02768 25-609): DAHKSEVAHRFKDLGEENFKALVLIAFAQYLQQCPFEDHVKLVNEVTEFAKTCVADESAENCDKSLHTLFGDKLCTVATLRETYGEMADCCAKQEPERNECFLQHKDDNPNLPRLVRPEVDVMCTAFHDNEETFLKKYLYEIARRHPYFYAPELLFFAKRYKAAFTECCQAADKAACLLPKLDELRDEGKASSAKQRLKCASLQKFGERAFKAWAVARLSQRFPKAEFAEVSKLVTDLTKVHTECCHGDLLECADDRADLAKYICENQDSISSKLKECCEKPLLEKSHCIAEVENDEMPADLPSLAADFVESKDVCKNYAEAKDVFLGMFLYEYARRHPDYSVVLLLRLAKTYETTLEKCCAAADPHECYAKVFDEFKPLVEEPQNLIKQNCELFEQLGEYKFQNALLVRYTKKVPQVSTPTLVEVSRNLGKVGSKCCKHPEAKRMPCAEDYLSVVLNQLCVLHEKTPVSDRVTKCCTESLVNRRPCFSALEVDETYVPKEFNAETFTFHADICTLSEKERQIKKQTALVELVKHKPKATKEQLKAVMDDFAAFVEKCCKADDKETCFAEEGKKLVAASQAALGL
procedure.details: biochemical
measured.property: Kd

[Q] Tell me the measured Kd of Cc1n[nH]c(C)c1CCCOc1cc(C(=O)O)ccc1F [AG10] , please.
[A] ~8 µM

* * *

procedure.details: Phase 1 (AG10-001) single ascending dose pharmacokinetics
Assay type: in vivo, human
condition.context: both sexes, human, plasma, po, 150 mg, single oral dose 150 mg AG10 HCl; healthy subjects; geometric mean ± SD; read-out: C24
measured.property: concentration at 24 hr (nM)
The reply should be a number in nM, with the unit left off.

[Q] Tell me the measured concentration at 24 hr of Cc1n[nH]c(C)c1CCCOc1cc(C(=O)O)ccc1F [AG10] , please.
[A] 1780

* * *

procedure.details: Phase 1 (AG10-001) multiple ascending dose pharmacokinetics
Format: in vivo, human
condition.context: human, plasma, oral, 800 mg, 800 mg q12 h, Day 12; geometric mean
measured.property: Tmax (min)
The reply should be a number in min, with the unit left off.

[Q] Tell me the measured Tmax of Cc1n[nH]c(C)c1CCCOc1cc(C(=O)O)ccc1F , please.
[A] 53.5

* * *

procedure.details: Phase 1 (AG10-001) single ascending dose pharmacokinetics
Format: in vivo, human
condition.context: both sexes, human, plasma, oral, 300 mg, SAD Cohort 3, 300 mg, Fed (high fat test meal); geometric mean
measured.property: Cmax (µM)
The reply should be a number in µM, with the unit left off.

[Q] Tell me the measured Cmax of Cc1n[nH]c(C)c1CCCOc1cc(C(=O)O)ccc1F , please.
[A] 10.2

* * *

procedure.details: Phase 1 (AG10-001) single ascending dose pharmacokinetics
Type: in vivo, human
condition.context: both sexes, human, plasma, po, 300 mg
Protocol: Quantitation was performed using a weighted 1/x^2 linear least squares regression analysis generated from calibration standards prepared on the day of extraction. One of the SAD cohorts received two 300 mg doses, one under fasted conditions and the other following a high fat test meal after an appropriate washout period.
measured.property: AUC(0-inf) (µM·h)
The reply should be a number in µM·h, with the unit left off.

[Q] Tell me the measured AUC(0-inf) of Cc1n[nH]c(C)c1CCCOc1cc(C(=O)O)ccc1F , please.
[A] 191

* * *

procedure.details: Phase 1 (AG10-001) multiple ascending dose pharmacokinetics
Type: in vivo, human
condition.context: human, plasma, oral, 800 mg, 800 mg q12 h, Day 1; geometric mean
measured.property: Cmax (µM)
The reply should be a number in µM, with the unit left off.

[Q] Tell me the measured Cmax of Cc1n[nH]c(C)c1CCCOc1cc(C(=O)O)ccc1F , please.
[A] 31.8

* * *

procedure.details: Phase 1 (AG10-001) single ascending dose pharmacokinetics
Type: in vivo, human
condition.context: both sexes, human, plasma, po, 800 mg
measured.property: AUC(0-inf) (µM·h)
The reply should be a number in µM·h, with the unit left off.

[Q] Tell me the measured AUC(0-inf) of Cc1n[nH]c(C)c1CCCOc1cc(C(=O)O)ccc1F [AG10] , please.
[A] 414

* * *

procedure.details: Phase 1 (AG10-001) multiple ascending dose pharmacokinetics
Format: in vivo, human
condition.context: human, plasma, oral, 800 mg, 800 mg q12 h, Day 12; geometric mean
measured.property: Cmax (µM)
The reply should be a number in µM, with the unit left off.

[Q] Tell me the measured Cmax of Cc1n[nH]c(C)c1CCCOc1cc(C(=O)O)ccc1F [AG10] , please.
[A] 42.5

* * *

procedure.details: Phase 1 (AG10-001) single ascending dose pharmacokinetics
Type: in vivo, human
condition.context: both sexes, human, plasma, po; read-out: elimination half-life
measured.property: half-life

[Q] Tell me the measured half-life of Cc1n[nH]c(C)c1CCCOc1cc(C(=O)O)ccc1F , please.
[A] 22 to 27 h

* * *

procedure.details: Phase 1 (AG10-001) single ascending dose pharmacokinetics
Format: in vivo, human
condition.context: both sexes, human, plasma, oral, 300 mg, SAD Cohort 3, 300 mg, Fasted; geometric mean
measured.property: Tmax (min)
The reply should be a number in min, with the unit left off.

[Q] Tell me the measured Tmax of Cc1n[nH]c(C)c1CCCOc1cc(C(=O)O)ccc1F , please.
[A] 42.4

* * *

procedure.details: Phase 1 (AG10-001) single ascending dose pharmacokinetics
Type: in vivo, human
condition.context: both sexes, human, plasma, po, 300 mg, single oral dose 300 mg AG10 HCl; healthy subjects; geometric mean ± SD; read-out: AUC0-24
measured.property: AUC(0-t) (µM·h)
The reply should be a number in µM·h, with the unit left off.

[Q] Tell me the measured AUC(0-t) of Cc1n[nH]c(C)c1CCCOc1cc(C(=O)O)ccc1F , please.
[A] 100

* * *

procedure.details: Phase 1 (AG10-001) multiple ascending dose pharmacokinetics
Assay type: in vivo, human
condition.context: human, plasma, oral, 100 mg, 100 mg q12 h, Day 1; geometric mean
Protocol: Quantitation was performed using a weighted 1/x^2 linear least squares regression analysis generated from calibration standards prepared on the day of extraction. […]
measured.property: Tmax (min)
The reply should be a number in min, with the unit left off.

[Q] Tell me the measured Tmax of Cc1n[nH]c(C)c1CCCOc1cc(C(=O)O)ccc1F [AG10] , please.
[A] 47.6

* * *

procedure.details: Phase 1 (AG10-001) single ascending dose pharmacokinetics
Assay type: in vivo, human
condition.context: both sexes, human, plasma, po, 50 mg, single oral dose 50 mg AG10 HCl; healthy subjects; geometric mean ± SD
measured.property: Cmax
Include the unit after the number when you answer.

[Q] Tell me the measured Cmax of Cc1n[nH]c(C)c1CCCOc1cc(C(=O)O)ccc1F , please.
[A] 7.2 µM

* * *

procedure.details: Phase 1 (AG10-001) single ascending dose pharmacokinetics
Assay type: in vivo, human
condition.context: both sexes, human, plasma, oral, 300 mg, SAD Cohort 3, 300 mg, Fasted; geometric mean; read-out: C24
measured.property: concentration at 24 hr (nM)
The reply should be a number in nM, with the unit left off.

[Q] Tell me the measured concentration at 24 hr of Cc1n[nH]c(C)c1CCCOc1cc(C(=O)O)ccc1F [AG10] , please.
[A] 2190
